Values were extracted from patent US20220306626A1.

# Assay text: Solubility of the crystalline form in water and Simulated Lung Fluid
# Type: physicochemical
# Condition set: Simulated Lung Fluid (SLF), fassgf or other biorelevant, thermodynamic from solid; Simulated Lung Fluid pH 6.9, 25° C., 30 minutes
Measurement type: solubility at 30 min (µg/mL)
Report as a plain number; the unit µg/mL is understood.

Req: What value of solubility at 30 min has been reported for the following molecule? CCc1cc(O)c(F)cc1-c1ccc2c(-c3nc4c([nH]3)CCN(C3CCN(C)CC3)C4)n[nH]c2c1 [crystalline form]
Resp: 210

###

# Assay text: Solubility of the crystalline form in water and Simulated Lung Fluid
# Assay type: physicochemical
# Condition set: thermodynamic from solid; water, 25° C., 24 hours; read-out: solubility in water
Measurement type: solubility at 24 h (µg/mL)
Report as a plain number; the unit µg/mL is understood.

Req: What value of solubility at 24 h has been reported for the following molecule? CCc1cc(O)c(F)cc1-c1ccc2c(-c3nc4c([nH]3)CCN(C3CCN(C)CC3)C4)n[nH]c2c1 [crystalline form]
Resp: 3200

###

# Assay text: Solubility of the crystalline form in water and Simulated Lung Fluid
# Type: physicochemical
# Condition set: Simulated Lung Fluid (SLF), pH 6.9, fassgf or other biorelevant, thermodynamic from solid; Simulated Lung Fluid, 25° C., 24 hours; read-out: solubility in SLF
# Protocol: The solubility of the crystalline form was assessed in water and Simulated Lung Fluid (SLF). The crystalline form was dispersed in liquid media in multiple vials to form slurries, with each vial containing about 7.5 mg of the crystalline form and 0.5 mL of the liquid media. […] Solubility at each timepoint is determined by analyzing the compound concentration in the supernatant using HPLC. […]
Measurement type: solubility at 24 h (mg/mL)
Report as a plain number; the unit mg/mL is understood.

Req: What value of solubility at 24 h has been reported for the following compound? CCc1cc(O)c(F)cc1-c1ccc2c(-c3nc4c([nH]3)CCN(C3CCN(C)CC3)C4)n[nH]c2c1 [crystalline form]
Resp: 0.07

###

# Assay text: Solubility of the crystalline form in water and Simulated Lung Fluid
# Type: physicochemical
# Condition set: thermodynamic from solid; water, 25° C., 60 minutes
Measurement type: solubility at 60 min (µg/mL)
Report as a plain number; the unit µg/mL is understood.

Req: What value of solubility at 60 min has been reported for the following compound? CCc1cc(O)c(F)cc1-c1ccc2c(-c3nc4c([nH]3)CCN(C3CCN(C)CC3)C4)n[nH]c2c1 [crystalline form]
Resp: 8900
